Reference source: paper PMC10816394

- Tested on: S. aureus-infected mice
- Design: species or system female Kunming mice
- run conditions: mouse, in vivo
No end group written: not given here.
assay metric: Abscess/Blood ratio
Please state the value as a number alone, without comment.

[^99mTc]Tc(CO)3-CN7UBI 29-41: ^99mTc complex of ligand CN7UBI 29-41 with the [^99mTc][Tc(I)(CO)3(H2O)3]^+ core (TGRAKRRMQYNRR; also: CN7 chelator, position not given here, 99mTc(CO)3 complex; UniProt P62861 103-115, looked up, fragment) = 0.69
[^99mTc]Tc(CO)3-CN6UBI 29-41: ^99mTc complex of ligand CN6UBI 29-41 with the [^99mTc][Tc(I)(CO)3(H2O)3]^+ core (TGRAKRRMQYNRR; also: CN6 chelator, position not given here, 99mTc(CO)3 complex; UniProt P62861 103-115, looked up, fragment) = 0.73
[^99mTc]Tc(CO)3-CN9UBI 29-41: ^99mTc complex of ligand CN9UBI 29-41 with the [^99mTc][Tc(I)(CO)3(H2O)3]^+ core (TGRAKRRMQYNRR; also: CN9 chelator, position not given here, 99mTc(CO)3 complex; UniProt P62861 103-115, looked up, fragment) = 0.75
[^99mTc]Tc(CO)3-CN8UBI 29-41: ^99mTc complex of ligand CN8UBI 29-41 with the [^99mTc][Tc(I)(CO)3(H2O)3]^+ core (TGRAKRRMQYNRR; also: CN8 chelator, position not given here, 99mTc(CO)3 complex; UniProt P62861 103-115, looked up, fragment) = 0.64
[^99mTc]Tc(CO)3-CN5UBI 29-41: ^99mTc complex of ligand CN5UBI 29-41 with the [^99mTc][Tc(I)(CO)3(H2O)3]^+ core (TGRAKRRMQYNRR; also: CN5 chelator, position not given here, 99mTc(CO)3 complex; UniProt P62861 103-115, looked up, fragment) = 0.67

So what's the measured Abscess/Blood ratio for this one? [^99mTc]TcN-CN9UBI 29-41: ^99mTc complex of ligand CN9UBI 29-41 with the [^99mTc][Tc(V)N]^2+ core (TGRAKRRMQYNRR; also: CN9 chelator, position not given here, 99mTc complex with [99mTc][Tc(V)N]2+ core; UniProt P62861 103-115, looked up, fragment)
0.70

Would you mind doing [^99mTc]Tc-CN9UBI 29-41: ^99mTc complex of ligand CN9UBI 29-41 with the [^99mTc]Tc(I)^+ core (TGRAKRRMQYNRR; also: CN9 chelator, position not given here, 99mTc complex with [99mTc]Tc(I)+ core; UniProt P62861 103-115, looked up, fragment) as well?
0.69

Same question, [^99mTc]TcN-CN8UBI 29-41: ^99mTc complex of ligand CN8UBI 29-41 with the [^99mTc][Tc(V)N]^2+ core (TGRAKRRMQYNRR; also: CN8 chelator, position not given here, 99mTc complex with [99mTc][Tc(V)N]2+ core; UniProt P62861 103-115, looked up, fragment) this time
0.72

====

- System: S. aureus-infected mice
- Set-up: species or system female Kunming mice
- run conditions: mouse, in vivo
- Description: Bacterial infection mouse models were constructed as follows: S. aureus (ATCC 25923) was cultured in a liquid medium at 37 °C for approximately 24 h, washed with PBS (pH 7.4) and diluted to obtain a suspension of 1 × 10^8 CFU/mL. […] The mice were sacrificed with isoflurane anesthesia at 120 min postinjection. […] To evaluate the metabolic properties of [^99mTc]Tc-CN5UBI 29-41, biodistribution studies were carried out in mice infected with S. aureus at 30, 120 and 240 min.
No end group written: not given here.
assay metric: Abscess/Muscle ratio (target-to-nontarget ratio)
// return just the number, without any unit appended

[^99mTc]Tc-CN7UBI 29-41: ^99mTc complex of ligand CN7UBI 29-41 with the [^99mTc]Tc(I)^+ core (TGRAKRRMQYNRR; also: CN7 chelator, position not given here, 99mTc(I) complex; UniProt P62861 103-115, looked up, fragment) = 2.52
[^99mTc]Tc-CN6UBI 29-41: ^99mTc complex of ligand CN6UBI 29-41 with the [^99mTc]Tc(I)^+ core (TGRAKRRMQYNRR; also: CN6 chelator, position not given here, 99mTc(I) complex; UniProt P62861 103-115, looked up, fragment) = 3.48

Continue with the substance presented below.
Entry [^99mTc]TcN-CN9UBI 29-41: ^99mTc complex of ligand CN9UBI 29-41 with the [^99mTc][Tc(V)N]^2+ core (TGRAKRRMQYNRR; also: CN9 chelator, position not given here, 99mTc complex with [99mTc][Tc(V)N]2+ core; UniProt P62861 103-115, looked up, fragment) has what Abscess/Muscle ratio (target-to-nontarget ratio)?
2.79
